# system.name: MMP-7 (Homo sapiens (Human), UniProt P09237)
# Sequence (P09237 95-267): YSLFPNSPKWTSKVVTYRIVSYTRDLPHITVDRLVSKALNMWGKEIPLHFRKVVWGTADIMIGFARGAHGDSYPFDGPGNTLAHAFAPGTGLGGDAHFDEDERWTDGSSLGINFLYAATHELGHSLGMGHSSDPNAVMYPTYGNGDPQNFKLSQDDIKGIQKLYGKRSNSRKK
# assay.details: MMP-7 inhibition assay (fluorogenic peptide substrate)
# assay.conditions: recombinant MMP-7 8.3 nM, Mca-PLGL-Dpa-AR-NH2 10 μM, 4 hours at room temperature; tested at 1, 10, 100 and 200 μM
Where a SMILES comes first, the peptide text is derived from it. [ ]: non-standard residue; d: D form. The star is where a group is joined. ξ: configuration not given here. Pro(trans-4-F) = O=C(O)[C@@H]1C[C@@H](F)CN1; NMeIle(3ξ) = CCC(C)[C@H](NC)C(=O)O; Dab = NCC[C@H](N)C(=O)O; Hexanoyl = CCCCCC(=O)*; Bz = O=C(c1ccccc1)*; NHOH = ON*
Entries and their pIC50 values follow.
API: returns pIC50 as number; meaning -log10 of concentration in mol/L.

Please review the entries below; each comes with its answer.
Quick one: pIC50 for CCCCCCCC(=O)N1CCC[C@H]1C(=O)N(C)[C@H](C(=O)N[C@@H](CCNC(=O)c1cc(F)cc(F)c1)C(=O)NO)C(C)CC (stereo partly drawn) ?
4.28

Then what about the compound CCC(C)[C@@H](C(=O)N[C@@H](CCNC(=O)c1cc(F)cc(F)c1)C(=O)NO)N(C)C(=O)[C@@H]1CCCN1C(=O)CC(C)C (stereo partly drawn) ?
5.46

Now for the compound whose pIC50 we want.
// query pIC50 value for entry CCCCCC(=O)N1C[C@H](F)C[C@H]1C(=O)N(C)[C@H](C(=O)N[C@@H](CCNC(=O)c1ccccc1)C(=O)NO)C(C)CC (stereo partly drawn) [Example 16] (Hexanoyl-[Pro(trans-4-F)]-[NMeIle(3ξ)]-[Dab](Bz)-{NHOH})
6.00

====

Reported IC50 by item:
# system.name: MMP-7 (Homo sapiens (Human))
# assay.details: MMP-7 inhibition assay (fluorogenic peptide substrate)
# assay.conditions: recombinant MMP-7 8.3 nM, Mca-PLGL-Dpa-AR-NH2 10 μM, 4 hours at room temperature; tested at 1, 10, 100 and 200 μM
# Protocol: All the experiments were done in 1× reaction buffer, which was obtained from a 10× reaction buffer solution. The content of the 10× reaction buffer was: 50 mL of 0.5 M Tris-HCl, 1.5 M NaCl, 50 mM CaCl2 and 2 mM sodium azide at pH 7.6. […] The inhibitory activity of the new compound was measured fluorimetrically. […] Inhibitory activity at several concentration points (1, 10, 100 and 200 μM) were measured for each compound. […]

Field request: IC50 | item: CCCCCC(=O)N1CC(F)(F)C[C@H]1C(=O)N(C)[C@H](C(=O)N[C@@H](CCNC(=O)c1cc(F)cc(F)c1)C(=O)NO)C(C)CC (stereo partly drawn)
7.71 µM

Also CCC(C)[C@@H](C(=O)N[C@@H](CCNC(=O)c1ccc(F)cc1)C(=O)NO)N(C)C(=O)[C@@H]1CCCN1C(C)=O (stereo partly drawn) , if possible.
23 µM

Continuing:
// query IC50 value for entry CCC(C)[C@@H](C(=O)N[C@@H](CCNC(=O)c1cc(F)cc(F)c1)C(=O)NO)N(C)C(=O)[C@@H]1CCCN1C(=O)CCN(C)C(C)=O (stereo partly drawn)
50.4 µM

====

# system.name: MMP-9
# Sequence (P14780 107-707 limits assumed): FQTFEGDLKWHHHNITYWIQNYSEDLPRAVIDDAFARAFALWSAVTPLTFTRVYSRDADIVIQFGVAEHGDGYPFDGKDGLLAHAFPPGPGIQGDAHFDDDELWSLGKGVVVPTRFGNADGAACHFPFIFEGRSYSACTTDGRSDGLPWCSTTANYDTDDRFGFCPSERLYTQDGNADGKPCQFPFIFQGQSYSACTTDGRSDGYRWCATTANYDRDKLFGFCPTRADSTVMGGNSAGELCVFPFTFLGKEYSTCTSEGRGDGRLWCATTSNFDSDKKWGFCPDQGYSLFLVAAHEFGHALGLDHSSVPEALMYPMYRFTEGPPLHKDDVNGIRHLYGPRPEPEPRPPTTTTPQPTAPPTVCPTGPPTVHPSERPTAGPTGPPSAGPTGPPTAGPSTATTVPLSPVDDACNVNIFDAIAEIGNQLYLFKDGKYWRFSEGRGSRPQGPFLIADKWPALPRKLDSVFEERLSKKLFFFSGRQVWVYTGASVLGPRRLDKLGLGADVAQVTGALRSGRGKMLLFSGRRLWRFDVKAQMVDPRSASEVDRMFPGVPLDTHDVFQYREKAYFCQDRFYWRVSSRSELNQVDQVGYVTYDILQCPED
# assay.details: MMP-9 inhibition assay (fluorimetric, DQ gelatin substrate)
# assay.conditions: recombinant MMP-9 (Merck-Millipore for examples 1 to 9 and comparative examples; Enzo for examples 10 to 16), DQ gelatin 50 μg/mL, 4 hours at room temperature, pH 7.6
Where a SMILES comes first, the peptide text is derived from it. [ ]: non-standard residue; d: D form. The star is where a group is joined. ξ: configuration not given here. NMeW = CN[C@@H](Cc1c[nH]c2ccccc12)C(=O)O; Benzoyl(3,5-F2) = O=C(c1cc(F)cc(F)c1)*; NMeIle(3ξ) = CCC(C)[C@H](NC)C(=O)O; Ile(3ξ) = CCC(C)[C@H](N)C(=O)O; NMeL = CN[C@@H](CC(C)C)C(=O)O; Dab = NCC[C@H](N)C(=O)O; Butyryl = CCCC(=O)*; NHOH = ON*
The entries below are paired with their reported pIC50.
Just so you know, pIC50 here is -log10 of the concentration in molar units; reply with that number alone.

Entry under review: CC(=O)N1CCC[C@H]1C(=O)N[C@@H](CCC(N)=O)C(=O)N[C@@H](Cc1c[nH]c2ccccc12)C(=O)NO [Example C17, reference compound] (Ac-Pro-Gln-Trp-{NHOH}) . Reported pIC50?
2.46

Entry CCC(C)[C@@H](C(=O)N[C@@H](CCNC(=O)c1cc(F)cc(F)c1)C(=O)NO)N(C)C(=O)[C@@H]1CCCN1C(=O)CCN(C)C(C)=O (stereo partly shown) please
6.47

And what about the compound CCC(C)[C@@H](C(=O)N[C@@H](CCNC(=O)c1cc(F)cc(F)c1)C(=O)NO)N(C)C(=O)[C@@H]1CCCN1C(=O)CC(C)C (stereo partly shown) ?
6.22

New cases:
Using the record for CCC(C)[C@H](NC(=O)[C@H](Cc1c[nH]c2ccccc12)NC(=O)[C@H](CCC(N)=O)NC(C)=O)C(=O)NO (stereo partly drawn) [Example C18, reference compound] (Ac-Gln-Trp-[Ile(3ξ)]-{NHOH}) , report its pIC50.
3.62

Now the same for CCCC(=O)N(C)[C@@H](Cc1c[nH]c2ccccc12)C(=O)N(C)[C@@H](CC(C)C)C(=O)N1CCC[C@H]1C(=O)N(C)[C@H](C(=O)N[C@@H](CCNC(=O)c1cc(F)cc(F)c1)C(=O)NO)C(C)CC (stereo partly shown) [Example 14] (Butyryl-[NMeW][NMeL]P[NMeIle(3ξ)][Dab](Benzoyl(3,5-F2))-{NHOH})
7.34

Also CCC(C)[C@@H](C(=O)N[C@@H](CCNC(=O)c1cc(F)cc(F)c1)C(=O)NO)N(C)C(=O)[C@@H]1CC(F)(F)CN1C(=O)CCCOc1ccccc1 (stereo partly shown) , if possible.
6.65
